The reported measurements were obtained from patent US8026247B2.

attribute.measured: melting point

>>> readout_value("CC(C)c1ccc(-n2nc(C(C)(C)C)cc2NC(=O)c2cncc3cc(Oc4cc(N)ncn4)ccc23)cc1")
"131 to 133 °C"
>>> readout_value("O=C(Nc1cccc(C(F)(F)F)c1)c1cccc2cc(Oc3cc(CCl)ncn3)ccc12")
"178 to 181 °C"

Look at this compound and give its reported melting point. `CNc1cc(Oc2ccc3c(c2)OCCN3C(=O)Nc2cccc(C(F)(F)F)c2)ncn1`
180 °C

Thanks! And `CNc1cc(Oc2ccc3c(c2)OCCN3C(=O)Nc2ccc(C)c(C(F)(F)F)c2)ncn1` ?
180 to 182 °C

What about this compound? `CNc1cc(Oc2ccc3c(C(=O)Nc4cccc(C(F)(F)F)c4)cncc3c2)ncn1`
205 to 208 °C

Entry `Nc1cc(Oc2ccc3c(C(=O)Nc4cccc(C(F)(F)F)c4)cccc3c2)ncn1` please
243 to 244 °C

// query: `CC(C)(C)c1cc(NC(=O)c2cncc3cc(Oc4cc(N)ncn4)ccc23)n(-c2ccc(F)cc2)n1`
124 to 126 °C

Query `N#Cc1cc(Oc2ccc3c(C(=O)Nc4cccc(C(F)(F)F)c4)cccc3c2)ncn1` next
167 °C

And the next one, `COC(=O)Nc1nccc(Oc2ccc3c(C(=O)Nc4cccc(C(F)(F)F)c4)cccc3c2)n1` ?
199 to 200 °C

Next record, please: `CC(=O)Nc1nccc(Oc2ccc3c(C(=O)Nc4cccc(C(F)(F)F)c4)cccc3c2)n1`
216 to 217 °C

###

Listed here: items and their measured melting point.

Reference set (5 entries):
>>> readout_value("Nc1cc(Sc2ccc3c(C(=O)Nc4cccc(OC(F)(F)F)c4)cccc3c2)ncn1")
"197 to 199 °C"
>>> readout_value("Nc1cc(Oc2ccc3c(C(=O)Nc4ccc(F)c(C(F)(F)F)c4)cccc3c2)ncn1")
"224 to 225 °C"
>>> readout_value("Nc1cc(C#Cc2ccc3c(C(=O)Nc4cccc(C(F)(F)F)c4)cccc3c2)ncn1")
"217 to 220 °C"
>>> readout_value("Nc1cc(Sc2ccc3c(C(=O)Nc4ccc(F)c(C(F)(F)F)c4)cccc3c2)ncn1")
"221 °C"
>>> readout_value("COC(=O)Nc1cc(Oc2ccc3c(C(=O)Nc4cccc(C(F)(F)F)c4)cccc3c2)ccn1")
"230 to 232 °C"

I would be grateful if you could share the reported melting point for `Nc1cc(S(=O)(=O)c2ccc3c(C(=O)Nc4cccc(C(F)(F)F)c4)cccc3c2)ncn1` .
229 to 231 °C

`Nc1nccc(Oc2ccc3c(c2)OCCN3C(=O)Nc2cccc(C(F)(F)F)c2)n1` , same question.
161 to 163 °C

Can you check `CNCc1cc(Oc2ccc3c(C(=O)Nc4cccc(C(F)(F)F)c4)cccc3c2)ncn1` next?
141 to 143 °C

###

Listed here are molecules together with their documented melting point.

The cases that follow already have their melting point on record.
>>> readout_value("CNC(=O)c1cc(Oc2ccc3c(C(=O)Nc4cccc(C(F)(F)F)c4)cccc3c2)ccn1")
"175 to 177 °C"
>>> readout_value("CNc1cc(Oc2ccc3c(C(=O)Nc4ccc(F)c(C(F)(F)F)c4)cncc3c2)ncn1")
"255 to 257 °C"
>>> readout_value("CC(C)NC(=O)c1cc(Oc2ccc3c(C(=O)Nc4cccc(C(F)(F)F)c4)cccc3c2)ncn1")
"205 to 208 °C"

Query molecule follows.
May I ask what melting point has been recorded for `CNc1cc(Oc2ccc3c(C(=O)Nc4ccc(N5CCOCC5)c(C(F)(F)F)c4)cccc3c2)ncn1` ?
156 to 157 °C
